Ends that are not written are not given here.
The sequences below have reported Minimal Inhibitory Concentration (MIC) Chlorella sorokiana for Chlorella sorokiniana.
Write the answer as a number in µM, unit excluded.

INSERT INTO measurements (sequence_string, recorded_measurement) VALUES
  ('FIHHIFRGIVHAGRSIGRFLTG [Piscidin 3]', 100.3);

[in] Entry FFHHIFRGIVHVGKTIHKLVTG [Piscidin 2] : reported Minimal Inhibitory Concentration (MIC) Chlorella sorokiana = ?
[out] 24.6

[in] Now the sequence GIGKFLHSAKKFGKAFVGEIMNS [Magainin 2]
[out] 50.7

[in] Another: FFHHIFRGIVHVGKTIHRLVTG [Piscidin 1]
[out] 24.3
